measuredOn: Adenosine receptor A3 (Homo sapiens, UniProt P0DMS8)
Sequence (P0DMS8 whole entry): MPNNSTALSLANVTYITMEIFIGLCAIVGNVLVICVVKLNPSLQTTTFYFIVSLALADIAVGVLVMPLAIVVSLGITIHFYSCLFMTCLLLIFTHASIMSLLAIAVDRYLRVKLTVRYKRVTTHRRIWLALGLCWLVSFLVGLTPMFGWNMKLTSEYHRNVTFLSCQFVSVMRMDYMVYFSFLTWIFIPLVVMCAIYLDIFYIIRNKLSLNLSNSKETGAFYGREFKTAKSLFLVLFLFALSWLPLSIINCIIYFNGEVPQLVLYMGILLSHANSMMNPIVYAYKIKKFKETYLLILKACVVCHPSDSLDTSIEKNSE
experimentalProtocol: Displacement of [1251]AB-MEC from human A3 receptor assessed as inhibition constant
assayMetric: pKi
The scale used: pKi is minus the common logarithm of the concentration in molar units.

Q: # returns recorded pKi (system: Adenosine receptor A3 (Homo sapiens, UniProt P0DMS8)) for CCCCn1c(=O)c2c(ncn2[C@@H]2O[C@H](C(=O)NC)[C@@H](O)[C@H]2O)n(CCCC)c1=O
Ans: 6.64

* * *

Target protein (sequence): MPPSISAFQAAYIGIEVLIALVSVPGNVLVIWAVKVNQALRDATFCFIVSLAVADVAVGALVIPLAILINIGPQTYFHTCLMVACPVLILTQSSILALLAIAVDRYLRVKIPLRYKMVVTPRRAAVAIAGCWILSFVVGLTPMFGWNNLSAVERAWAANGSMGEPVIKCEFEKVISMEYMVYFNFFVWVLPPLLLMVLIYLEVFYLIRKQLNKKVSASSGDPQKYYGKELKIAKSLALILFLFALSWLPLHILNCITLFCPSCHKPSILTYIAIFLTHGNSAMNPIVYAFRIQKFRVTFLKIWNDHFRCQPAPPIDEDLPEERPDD
assayMetric: pKi
For clarity, pKi is expressed as the negative log10 of concentration in mol/L.

Q: // query pKi value for entry CCCn1c(=O)c2nc(-c3ccc(OCC(N)=O)cc3O)[nH]c2n(CCC)c1=O
Ans: 8.19

Q: Field request: pKi | item: CCCn1c(=O)c2nc(C3CC4CC3C3OC43)[nH]c2n(CCC)c1=O (configuration not stated)
Ans: 9.02

The measurements presented in this section are drawn from BindingDB's records for doi:10.1021/jm9604383.
